System Under Test: beta-catenin/TCF4 engagement (Homo sapiens)
Construct: expressed in transfected cells; host or cells: HEK293
Sequence (P35222 whole entry): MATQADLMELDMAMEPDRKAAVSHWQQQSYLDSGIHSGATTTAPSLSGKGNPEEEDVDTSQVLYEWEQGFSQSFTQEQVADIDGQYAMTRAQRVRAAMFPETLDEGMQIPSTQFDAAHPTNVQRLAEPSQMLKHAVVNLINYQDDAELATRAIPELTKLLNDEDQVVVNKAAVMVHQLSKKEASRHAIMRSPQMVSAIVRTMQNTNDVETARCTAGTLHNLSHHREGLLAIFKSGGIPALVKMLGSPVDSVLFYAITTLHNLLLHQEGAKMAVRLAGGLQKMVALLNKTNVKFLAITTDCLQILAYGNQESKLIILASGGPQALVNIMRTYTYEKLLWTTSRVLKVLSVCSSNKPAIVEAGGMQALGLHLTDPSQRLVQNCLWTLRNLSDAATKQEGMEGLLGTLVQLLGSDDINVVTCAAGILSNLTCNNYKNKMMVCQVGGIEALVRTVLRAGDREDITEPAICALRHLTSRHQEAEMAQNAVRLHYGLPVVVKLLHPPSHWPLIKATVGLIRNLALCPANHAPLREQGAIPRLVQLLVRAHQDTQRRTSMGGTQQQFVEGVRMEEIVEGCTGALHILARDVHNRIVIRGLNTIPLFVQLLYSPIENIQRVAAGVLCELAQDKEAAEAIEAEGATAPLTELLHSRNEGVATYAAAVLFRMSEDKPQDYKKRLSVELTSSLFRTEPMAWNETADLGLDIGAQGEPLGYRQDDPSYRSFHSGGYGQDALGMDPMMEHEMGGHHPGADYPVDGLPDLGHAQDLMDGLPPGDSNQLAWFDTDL
Test Protocol: Nano-BRET target engagement assay (B-cat-Halo & TCF4-Luc in HEK293 cells)
Assay type: cell-based
Particulars: read-out: NanoBRET Abs IC50
Listed here are molecules together with their documented pIC50.
Please note pIC50 is a logarithmic value: minus log10 of concentration in mol/L. Answer with that number alone.

The cases that follow already have their pIC50 on record.
CC(=O)N[C@]1(C)CCCCCCCCC2(CCCCCCCCOC(=O)N3CC[C@@](C(=O)N[C@@H](Cc4ccccc4C(F)(F)F)C(=O)N[C@@H](Cc4csc5ccccc45)C(=O)N[C@@H](CCC(N)=O)C(N)=O)(C3)NC(=O)[C@H](CC(C)C)NC(=O)[C@H](Cc3ccccc3)NC(=O)[C@H](C)NC(=O)[C@H](C)NC(=O)[C@H](Cc3cccc(C(=O)O)c3)NC(=O)[C@H](CC(=O)O)NC2=O)NC(=O)[C@H](CC(C)(C)C)NC(=O)[C@H](CC(=O)O)NC1=O (stereo partly drawn) [I-2571]; 4.62
CC(=O)N1CCC[C@]12CC=CCCCC1(CCCC=CCCCOC(=O)N3CC[C@@](C(=O)N[C@@H](Cc4ccsc4)C(=O)N[C@@H](Cc4csc5ccccc45)C(=O)N[C@@H](CCC(N)=O)C(N)=O)(C3)NC(=O)[C@H](CC(C)C)NC(=O)[C@H](Cc3ccccc3)NC(=O)[C@H](C)NC(=O)[C@H](C)NC(=O)[C@H](CNc3ccc(N)cc3C(=O)O)NC(=O)[C@H](CC(=O)O)NC1=O)NC(=O)[C@H](CC(C)(C)C)NC(=O)[C@H](CC(=O)O)NC2=O (stereo partly drawn) [I-2087]; 5.19
CC(=O)N1CCC[C@]12CC=CCCCC1(CCCC=CCCCCCC[C@@](C)(C(=O)N[C@@H](Cc3ccccc3Cl)C(=O)N[C@@H](Cc3csc4ccccc34)C(=O)N[C@@H](CCC(N)=O)C(N)=O)NC(=O)[C@H]([C@@H](C)O)NC(=O)[C@H](Cc3ccccc3)NC(=O)[C@H](C)NC(=O)[C@H](C)NC(=O)[C@H](CN(CC(=O)O)CC(F)(F)F)NC(=O)[C@H](CC(=O)O)NC1=O)NC(=O)[C@H](CC(C)(C)C)NC(=O)[C@H](CC(=O)O)NC2=O (stereo partly drawn) [I-930]; 4.87

Problem: State its pIC50 for this molecule: CC(=O)N1CCC[C@]12CC=CCCCC1(CCCC=CCCCOC(=O)N3CC[C@@](C(=O)N[C@@H](Cc4ccsc4)C(=O)N[C@@H](Cc4csc5ccccc45)C(=O)N[C@@H](Cc4c[nH]cn4)C(=O)N[C@H](C)C(N)=O)(C3)NC(=O)[C@H](CC(N)=O)NC(=O)[C@H](Cc3ccccc3)NC(=O)[C@H](C)NC(=O)[C@H](C)NC(=O)[C@H](CC(=O)O)NC(=O)[C@H](CC(=O)O)NC1=O)NC(=O)[C@H](CC(C)(C)C)NC(=O)[C@H](CC(=O)O)NC2=O (stereo partly drawn) [I-823]
Solution: 4.74

Problem: Please look at this molecule and report its pIC50: CC(=O)N1CCC[C@]12CC=CCCCC1(CCCC=CCCCOC(=O)N3CC[C@@](C(=O)N[C@@H](Cc4ccsc4)C(=O)N[C@@H](Cc4csc5ccccc45)C(=O)N[C@@H](CCC(N)=O)C(=O)N[C@@H](CCCCNC(=O)C(C)(c4ccccc4)c4ccccc4)C(N)=O)(C3)NC(=O)[C@H](CC(N)=O)NC(=O)[C@H](Cc3ccccc3)NC(=O)[C@H](C)NC(=O)[C@H](C)NC(=O)[C@H](CC(=O)O)NC(=O)[C@H](CC(=O)O)NC1=O)NC(=O)[C@H](CC(C)(C)C)NC(=O)[C@H](CC(=O)O)NC2=O (stereo partly drawn) [I-904]
Solution: 4.70
